# assay.remarks: Physical/chemical characteristics of the solvents (specific gravity, flash point, boiling point, viscosity, surface tension, volatility)
# condition.context: TCC
quantity.name: Flashpoint (TCC) (°C)

INSERT INTO measurements (compound, quantity_name, measured_result) VALUES
  ('COC(C)=O [MA, methyl acetate]', 'Flashpoint (TCC)', '−4'),
  ('FC(F)(F)c1ccc(Cl)cc1 [PCBTF, parachlorobenzotrifluoride]', 'Flashpoint (TCC)', 109),
  ('CC(=O)OC(C)(C)C [TBAc, tert-butyl acetate]', 'Flashpoint (TCC)', 16.7),
  ('Cc1ccccc1', 'Flashpoint (TCC)', 16);

---

Listed compounds paired with reported Viscosity @ 20° C.
# assay.remarks: Physical/chemical characteristics of the solvents (specific gravity, flash point, boiling point, viscosity, surface tension, volatility)
# condition.context: 20° C.
quantity.name: Viscosity @ 20° C.

INSERT INTO measurements (compound, quantity_name, measured_result) VALUES
  ('CC(=O)OC(C)(C)C [TBAc, tert-butyl acetate]', 'Viscosity @ 20° C.', '0.7 (mPa · s) cP'),
  ('COC(C)=O [MA, methyl acetate]', 'Viscosity @ 20° C.', '0.37 (mPa · s) cP'),
  ('FC(F)(F)c1ccc(Cl)cc1 [PCBTF, parachlorobenzotrifluoride]', 'Viscosity @ 20° C.', '0.79 (mPa · s) cP'),
  ('Cc1ccccc1', 'Viscosity @ 20° C.', '0.59 (mPa · s) cP');
